The reader will find IC50 measurements below, all made with UniProt:O42275.
Sequence (O42275 whole entry): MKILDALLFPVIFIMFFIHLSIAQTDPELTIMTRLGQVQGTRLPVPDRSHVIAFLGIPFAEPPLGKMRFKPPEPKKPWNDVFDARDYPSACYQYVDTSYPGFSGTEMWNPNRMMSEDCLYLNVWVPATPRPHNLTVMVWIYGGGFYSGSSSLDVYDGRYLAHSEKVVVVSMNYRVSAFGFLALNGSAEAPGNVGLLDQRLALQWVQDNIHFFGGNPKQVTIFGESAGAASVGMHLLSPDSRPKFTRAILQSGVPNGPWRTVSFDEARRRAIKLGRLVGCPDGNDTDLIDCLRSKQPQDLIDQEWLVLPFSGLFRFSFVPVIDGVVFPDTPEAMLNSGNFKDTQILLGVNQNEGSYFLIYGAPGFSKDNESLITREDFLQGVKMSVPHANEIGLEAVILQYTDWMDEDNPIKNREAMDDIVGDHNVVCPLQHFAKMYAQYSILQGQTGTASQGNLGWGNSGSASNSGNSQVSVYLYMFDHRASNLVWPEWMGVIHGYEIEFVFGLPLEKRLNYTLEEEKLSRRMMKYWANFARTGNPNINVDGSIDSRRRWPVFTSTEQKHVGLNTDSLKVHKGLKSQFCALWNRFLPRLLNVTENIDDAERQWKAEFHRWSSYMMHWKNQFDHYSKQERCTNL
parameter-measured: IC50 (µM)

{"columns": ["query-smiles", "qualifier-sign", "value-measured"],
 "data": [
  ["COc1ccc(/C=C2\\Oc3cc(O)ccc3C2=O)cc1", ">", 100],
  ["CCN(CC)C(=O)Oc1ccc(/C=C2\\Oc3cc(OC)ccc3C2=O)cc1", "=", 10.9],
  ["COc1ccc(/C=C2\\Oc3cc(OC)ccc3C2=O)cc1", ">", 100],
  ["COc1ccc2c(c1)O/C(=C\\c1ccc(OCCCN(C)C)c(Cl)c1)C2=O", "=", 1.61],
  ["CCN(CC)c1ccc(/C=C2\\Oc3cc(OC)ccc3C2=O)cc1", ">", 100],
  ["COc1ccc2c(c1)O/C(=C\\c1ccc(OCCN3CCCCC3)cc1Cl)C2=O", "=", 0.513]
]}
